Entries and their melting point

Quick one: melting point for CN1CCN(CCNc2ncnc3c2sc2nc(N4CCCC4)c4c(c23)CC(C)(C)OC4)CC1 ?
97.5 to 98.8 °C

And what about the compound Cn1ncc2c(=O)n3c(nc21)SC(c1ccccc1)C3c1ccccc1 (stereo not given) ?
159 °C

And what about the compound Cc1ccnc2c(Oc3ccccc3NS(=O)(=O)c3ccc(Cl)cc3)cccc12 ?
123 to 125 °C

And what about the compound CC(C)(C#N)c1cc(C(O)c2cccnc2)cc(C(C)(C)C#N)c1 (stereo not given) ?
117 to 120 °C

And what about the compound O=C(O)c1cn(-c2ccc(F)cc2)c2c(F)c(N3Cc4ccc(Br)cc4C3)c(F)cc2c1=O ?
> 300 °C

And what about the compound CC(C)n1nc(-c2cnc(N3CCOCC3)nc2-c2ccccc2)ccc1=O ?
200 to 202 °C

And what about the compound CN1C(=O)N(C[C@H](C(=O)O)[C@@H](CC2CCCC2)C(=O)N2CCCCC2)C(=O)C1(C)C ?
111 to 114 °C

And what about the compound CCCOc1ccccc1-c1ccc([N+](=O)[O-])c(=O)[nH]1 ?
198 to 200 °C
